experiment: Bioanalytical assessment of plasma and brain concentrations after mouse DC-MES assay; type: in vivo; details: mouse, in vivo, 30 mg/kg, Study18003, 30 mg/kg, WT mouse DC-MES acute; read-out: Mean [Brain]
Value kind: concentration at 2 h (µM)
// note: answer is a bare numeric in µM

Given the entry COC[C@@H](NC(C)=O)C(=O)NCc1ccccc1 [lacosamide, Lacosamide, reference compound] , report its measured concentration at 2 h.
34.3

###

experiment: Bioanalytical assessment of plasma and brain concentrations after mouse DC-MES assay; assay type: in vivo; settings: mouse, in vivo, 3 mg/kg, Study18053, 3 mg/kg, WT mouse DC-MES acute; read-out: Mean [Palsma]
Value kind: concentration at 2 h
Mention the unit after the number when you answer.

Given the entry COC[C@@H](NC(C)=O)C(=O)NCc1ccccc1 [lacosamide, Lacosamide, reference compound] , report its measured concentration at 2 h.
6.21 µM

###

assay: Bioanalytical assessment of plasma and brain concentrations after mouse DC-MES assay; format: in vivo; conditions: mouse, plasma, po, 10 mg/kg, WT mice, 10 mg/kg PO single dose, 2 h; read-out: Mean [Plasma]
Value kind: concentration at 2 h (nM)
// note: answer is a bare numeric in nM

Given the entry Cc1cc(S(=O)(=O)Nc2cscn2)c(F)cc1N(C)[C@H]1CCN(Cc2ccccc2)C1 , report its measured concentration at 2 h.
94.2

###

system: Scn8a^N1768D/+ mice; assay: Modified 6 Hz psychomotor seizure assay; format: in vivo, mouse; settings: Mus musculus, 2 h, read-out: brain EC50
Value kind: pEC50
# pEC50 is unitless: minus log10 of the molar concentration; print number only

Given the entry COC[C@@H](NC(C)=O)C(=O)NCc1ccccc1 [lacosamide, Lacosamide, reference compound] , report its measured pEC50.
5.48

###

assay: Bioanalytical assessment of plasma and brain concentrations after 6 Hz assay; type: in vivo, mouse; settings: Scn8a^N1768D/+, mouse, in vivo, 1 mg/kg, Study18011, 1 mg/kg, SCN8A mouse 6HZ; read-out: Mean [Brain]
Value kind: concentration at 2 h (µM)
// note: answer is a bare numeric in µM

Given the entry COC[C@@H](NC(C)=O)C(=O)NCc1ccccc1 [lacosamide, Lacosamide, reference compound] , report its measured concentration at 2 h.
0.728

###

assay: Bioanalytical assessment of plasma and brain concentrations after mouse DC-MES assay; assay type: in vivo; conditions: mouse, plasma, intraperitoneal, 10 mg/kg, Study16130, 10 mg/kg, WT mouse DC-MES acute; read-out: Mean [Palsma]
Value kind: concentration at 2 h (µM)
// note: answer is a bare numeric in µM

Given the entry O=C1NC(=O)C(c2ccccc2)(c2ccccc2)N1 [phenytoin, Phenytoin] , report its measured concentration at 2 h.
30.7

###

test: Bioanalytical assessment of plasma and brain concentrations after rat DC-MES assay; assay type: in vivo; details: rat, in vivo, 2 mg/kg, Study18060, 2 mg/kg, Rat DC-MES; read-out: Mean [Palsma]
Value kind: concentration at 2 h (nM)
// note: answer is a bare numeric in nM

Given the entry COC[C@@H](NC(C)=O)C(=O)NCc1ccccc1 [lacosamide, Lacosamide, reference compound] , report its measured concentration at 2 h.
2970

###

experiment: Bioanalytical assessment of plasma and brain concentrations after 6 Hz assay; assay type: in vivo, mouse; conditions: Scn8a N1768D/+, mouse, plasma, oral, 100 mg/kg, Study16162, 100 mg/kg, SCN8A mouse 6HZ; read-out: Mean [Palsma]
Value kind: concentration at 2 h (µM)
// note: answer is a bare numeric in µM

Given the entry NC(=O)N1c2ccccc2C=Cc2ccccc21 [carbamazepine, Carbamazepine, reference compound] , report its measured concentration at 2 h.
154

###

Experiment: Bioanalytical assessment of plasma and brain concentrations after mouse DC-MES assay
Assay type: in vivo
Conditions: mouse, plasma, oral, 10 mg/kg, Study17131, 10 mg/kg, WT mouse DC-MES acute; read-out: Mean [Palsma]
Description: Approximately 0.5 mL of blood was collected from each mouse at the end of the assay via cardiac puncture under deep anesthesia. The blood samples were collected in a syringe and transferred to tubes containing EDTA. Blood was stored at 4 °C until centrifuged within 30 min of collection. […] Extraction of plasma samples was carried out by protein precipitation using acetonitrile. […] The samples were analyzed by UHPLC-ESI-MS/MS as described below. […]
Value kind: concentration at 2 h (µM)
// note: answer is a bare numeric in µM

Given the entry NC(=O)N1c2ccccc2C=Cc2ccccc21 [carbamazepine, Carbamazepine, reference compound] , report its measured concentration at 2 h.
13.6

###

assay: Bioanalytical assessment of plasma and brain concentrations after rat DC-MES assay; assay type: in vivo; details: rat, plasma, oral, 300 mg/kg, Study18085, 300 mg/kg, Rat DC-MES; read-out: Mean [Palsma]
Value kind: concentration at 2 h
Mention the unit after the number when you answer.

Given the entry NC(=O)N1c2ccccc2C=Cc2ccccc21 [carbamazepine, Carbamazepine, reference compound] , report its measured concentration at 2 h.
65.9 µM

###

assay: Bioanalytical assessment of plasma and brain concentrations after 6 Hz assay; assay type: in vivo, mouse; conditions: Scn8a^N1768D/+, mouse, in vivo, 10 mg/kg, Study18007, 10 mg/kg, SCN8A mouse 6HZ; read-out: Mean [Palsma]
Value kind: concentration at 2 h (µM)
// note: answer is a bare numeric in µM

Given the entry COC[C@@H](NC(C)=O)C(=O)NCc1ccccc1 [lacosamide, Lacosamide, reference compound] , report its measured concentration at 2 h.
10.7

###

experiment: Bioanalytical assessment of plasma and brain concentrations after mouse DC-MES assay; format: in vivo; conditions: mouse, in vivo, 30 mg/kg, Study18003, 30 mg/kg, WT mouse DC-MES acute; read-out: Mean [Palsma]
Value kind: concentration at 2 h (µM)
// note: answer is a bare numeric in µM

Given the entry COC[C@@H](NC(C)=O)C(=O)NCc1ccccc1 [lacosamide, Lacosamide, reference compound] , report its measured concentration at 2 h.
26.7

###

test: Bioanalytical assessment of plasma and brain concentrations after rat DC-MES assay; format: in vivo; conditions: rat, plasma, oral, 10 mg/kg, Study18058, 10 mg/kg, Rat DC-MES; read-out: Mean [Palsma]
Value kind: concentration at 2 h (µM)
// note: answer is a bare numeric in µM

Given the entry NC(=O)N1c2ccccc2C=Cc2ccccc21 [carbamazepine, Carbamazepine, reference compound] , report its measured concentration at 2 h.
4.27

###

assay: Bioanalytical assessment of plasma and brain concentrations after rat DC-MES assay; type: in vivo; details: rat, in vivo, 12 mg/kg, Study18060, 12 mg/kg, Rat DC-MES; read-out: Mean [Brain]
Value kind: concentration at 2 h (µM)
// note: answer is a bare numeric in µM

Given the entry COC[C@@H](NC(C)=O)C(=O)NCc1ccccc1 [lacosamide, Lacosamide, reference compound] , report its measured concentration at 2 h.
3.74

###

experiment: Bioanalytical assessment of plasma and brain concentrations after 6 Hz assay; format: in vivo, mouse; settings: Scn8a^N1768D/+, mouse, plasma, po, 6 mg/kg, Scn8a mice, 6 mg/kg PO every 12 hr, day 7, 2 hr after 13th dose; read-out: Mean [Plasma]
Value kind: concentration at 2 hr (nM)
// note: answer is a bare numeric in nM

Given the entry Cc1cc(S(=O)(=O)Nc2cscn2)c(F)cc1N(C)[C@H]1CCN(Cc2ccccc2)C1 [NBI-921352] , report its measured concentration at 2 hr.
13.2

###

experiment: Bioanalytical assessment of plasma and brain concentrations after 6 Hz assay; format: in vivo, mouse; conditions: Scn8a^N1768D/+, mouse, in vivo, 1 mg/kg, Study18011, 1 mg/kg, SCN8A mouse 6HZ; read-out: Mean [Palsma]
Value kind: concentration at 2 h (nM)
// note: answer is a bare numeric in nM

Given the entry COC[C@@H](NC(C)=O)C(=O)NCc1ccccc1 [lacosamide, Lacosamide, reference compound] , report its measured concentration at 2 h.
1120

###

assay: Bioanalytical assessment of plasma and brain concentrations after 6 Hz assay; format: in vivo, mouse; settings: Scn8a N1768D/+, mouse, brain, oral, 30 mg/kg, Study16152, 30 mg/kg, SCN8A mouse 6HZ; read-out: Mean [Brain]
Value kind: concentration at 2 h (µM)
// note: answer is a bare numeric in µM

Given the entry NC(=O)N1c2ccccc2C=Cc2ccccc21 [carbamazepine, Carbamazepine, reference compound] , report its measured concentration at 2 h.
40.7

###

experiment: Bioanalytical assessment of plasma and brain concentrations after rat DC-MES assay; format: in vivo; conditions: rat, plasma, oral, 30 mg/kg, Study18068, 30 mg/kg, Rat DC-MES; read-out: Mean [Palsma]
Value kind: concentration at 2 h (µM)
// note: answer is a bare numeric in µM

Given the entry NC(=O)N1c2ccccc2C=Cc2ccccc21 [carbamazepine, Carbamazepine, reference compound] , report its measured concentration at 2 h.
24
